Assay explanation: label from the status in PepcDB records;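 note: failed if final PepcDB status was selected cloned or expressed and not failed if soluble or beyond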
Property label: protein production

Illustrative cases are given below, each with its answer.
MIFNTLARYFLKRYLMTTIWFVLGVSSIIYLADFSETARRMSGLPGYSVPAALGLTALRLPLILQQTVPFIALFVGMTTLISLNRRYELVVTRAAGISAWQFILPFVLGAVFIGILSVMVLNPIAAWGQNKSLAMEAGLRNDAGGGRQQEIIPWMRQSSGGKDTIIGAKSFEDNGTMLLDVVLIDVDKDGNIVSRKDAKSAKLEDGYWLLNGVSETRAGHVPVRQESMQISTNLRREFVQERMTQTETVAFFDLSHKIEVAKSFGLSSKALETQYHFLLSTPLLLVAMTLIAATVSLKFSRFAQSRSVILGGIVSGFVLYVVTVLVRAFGSGGVVPPTVAVWVPVIVALALGATILLHQEDG : failed
MYSSGNPTNIANPIKDASVQIDLKTVGGKLTLYQTTLCERISGDNIDLGLDLGSQSFLPTYNKNDIQLICCQADASVLWLVPDTVVTRFIQSLDWDTDMDITFTWVLNRDRPKGKETVKYERSVDPLDLPKRSDIQMVLNGSMDGFRVHNLYPKFFRVTGSGDVRSFEDQTDEVSADILINHANFKWWWSFHNLKASENISACEGMDGPVAIIMSEETPPPVGRFIRLQCSDLRMRIPYENLPSCDRLIAICEDLYAARAEGELGVEEVLYWTLVKIYRSPHMLLEYTKLDYDA : failed
MEKVHLYWNLRYNCWFLVSVEHLWYSQGKVPGVHGFVILPVFLTLLEQPFSTTKKDITQLRSPSSESLSSSNAVNYRAIRGSHSYFGIYGI : failed
LKVLTNKASVMLFMKGNKQEAKCGFSKQILEILNSTGVEYETFDILEDEEVRQGLKTFSNWPTYPQLYVRGDLVGGLDIVKELKDNGELLPILKGE : not failed
LDSELELPAGWEKIEDPVYGIYYVDHINRKTQYENPVLEAKRKKQLE : not failed

Quick request: protein production for each listed item, please.
1. MKKSSILVFLLTYGLFYVSSILFPIDRMWYDALEKPSWTPSGMTIGIVWTVLYGLIALSVAIIYNKYGCKPKTFWFIFLLNYMCNQAFSYFQFSQKDLFLATIDCLLVAVTTLLLIAVSSSLSKVSTWLLIPYFLWATFATYLSWSIYSIN
2. MAPKPVAVDAGHYRGTWLEIGRMPMLLTDGCVAGYSTYRQGKSADEVLVEDGCREGTPQGKLKTINGVGKIEDFASTKAKMRVRYPLLITFNYWVLYKSPDKSWFISANPSTEDVWVYARSVPSKAKLNRMMMKVRELGYDVKKLEFPLEHHHHHH
3. MTNPETASDNSRDLVLVRRFDAPCDLVFRAWTDPKALAQWCGPHGFKAVGDRLEAWPGGRHRACLIAPDGEEHWVGGKYLEVEPPHRLVFTHAWETGAGETSPETIVTITLRESDGGTEMTFRQSGFASVSSLEGHESGWSQSFERLSSFLGTGSEGLNHA

1. failed
2. not failed
3. failed

* * *

Assay explanation: label from the status in PepcDB records
Property label: protein production

Illustrative cases are given below, each with its answer.
DHLILLPGWGLGSAPLEPLRDALHEREPHLNVLIEPLPSLDDAADWLDELDDNLPRDSWLAGWSLGGMLAGELAARRGDDCRGLLTLASNPCFRVREDWPNAMPAETFEDFFEAFLLEPHLTRKRFTLLVSQGARDPRTLARQLQVALPQLEREALVAGLQLLGQLDTRAALENFRGPQLHLFAEADALVPLAAAEALLEWLPDVEVSTLAASHGLPLECPDEVAGAILRFLRE : failed
MRPVYFLSDFGLEDPYVAVVKAVLAERAPGPAVVDLAHALPPQDLRRAAYALFEALPYLPEGAVVLAVVDPGVGTARRAVAALGRWTYVGPDNGLFTLAWLLDPPRRAFLLEPPRPRPKAALPGWAPGEATFHGRDVFAPAAAHLALGLPPEGLGPEVPVETLARLPLALTEGPEGEVLTFDRFGNAITTLLRAPVGGFVEVGGRRVPVRRTFGEVPEGAPVAYLGSAGLLEVAVNRGSAREALGLKEGMPVRLL : not failed
MNQNKITAGGLEFLVRFAAPTDRLKINDLMIDTARWLKESGSTQWSDILHGFDVHNIEQRIELGEVALFETEAGALAGAMIIRKTPSDWDTDLWEDLAIDKAYYLHRIMVSRAFSGISLSKQMIYFAEKLGIEMSVPFIRLDCIESNETLNQMYVRYGFQFSGKKNGFYLYQKELSQK : not failed
MSTPSHLNAQPLVWGHGPRTFEVFLEPTCPYSVRAFNKLDDLLDEVGADNVTIKIRLQSQPWHLFSGVIVRCILAASTLPHGREQAHKVMQAVADHREEFEFTDHCSGPNMNATPQQIIERIERYSHVLLGAAFARPELQDVIKWHSKYARQNGIHVSPTFMVNGLVQPDLGSGDDVSVWAARIMA : failed

Quick request: protein production for each listed item, please.
1. MNMIRRLTALTLSLMLAGGPALAQTVVIVRHGEKVSPNGDPDLSDAGKARAQALAAALAGARVSTVLATPLKRTQQTAQPTADAAGLVIRTIALDGGVPAHAQRVAEVARQAPKDATVLIVGHSNTVGEIARALGDAAPSPVTDCDYDQMTIISLDAPTARTLHARYGAPTLPCPTN
2. MLPVLETTAHSPLTIVWFVLITVLWVGFFFLEGFDFGVAMLLPFLGRDDKDRRLMVNTIGPTWDGNEVWLLTAGGATFAAFPGWYATMFSGLYLPLLLVLLGLIVRGVAFEYRSKNPSSSWRNAFDWMATIGSFLPTLVLGVGFANFVRGLAVGPHSTPDGGTAPLVTTSFWGLFTPFALIGGILFVVLFCAHGANFVALKTMGDMHDRARKTSAKLGWIATVVALVWALMFNIMYVTRDGRQVLTWIICLLVVVLLAAGSAVVAKGREGLAFLCTALGIALMIVACMFAMYGNLGYRPSGIAFDMWIASATGRTLKIMTISACVFVPIVLAYQVWSYWVFRKRLTREAIPDTAVAA

1. failed
2. failed

Quick request: protein production for each listed item, please.
1. MRKSKLTFIATFLILLFLSMPYKAHAASQTPITRADAEQRALTMINLNWTYSKSKNGVLPSAYSGSITAPSQFRGIENVVATGIPYCWGGFDGLNSSSYGESWTNFTDAVNKGAFVGNVKSSSYGHITGTAGLDCSGFVQATFNIKDYKLSTSTIFNQYFTKIDIKDIKHMDILNLPGNHVVIFDKWGTRNGVNGAYTYEATPDTTYGGIQGTKQYFMSMNTVSQYIPGRYVNIKEVAYVQVINASSLNIRTGPSTSYPIIGTISQNQIAEVTGYSSDGTWYKIKINGIEGYASSTYLTYVNNLEHHHHHH
2. MKRKTIRILLISSGLILILLVGYRLYLEYQTDIQLFLNPKASKTQLLERIRSHGFSAALLLVFLTAIMCAVPGIPTSVIGVIAGLSFGPFSGTLINVLGNSMGNLVAIFLMHHIKFLDKKTETNHWVQSIRRMKHPKIGIMVGYMIPIIPSSVINFAADTMQLPLKNLIAAIFIGVIPSSILYACGGEALFHGYNKTAVLLIVSVLLFVGLVVIIEKDRKRFQKTVL
3. MTTTLTILTPTYNRAYILPKLYASLVEQTNKHFDWMVVDDGSTDNTEQLISEFIADGKINIVYIKQKNGGKHRALNTGAQSINSDYIFIVDSDDYLTNDAIDIILENSHYLKEKNLMGMTLLRGYAPDKVIGEKYPEDFMIKNFNQVRYNMGIKGDKAEVVSTKIFRETPFPEIPGERFMSEGVAWKQLAHKGDSLFINKIVYITEYLEDGLTHSGRLLLIKNPLGAMLNAKLAMTKEFSFKIREKNSLLYIAYGFFAKKKVREIITESGQRKLVRVNLLFGWMI
4. MKNIEKLEQSLTYEFKDKNLLIHALTHKSFKKSYNNERLEFLGDAVLDLVVGEYLFHKFAKDAEGDLSKLRAALVNEKSFAKIANSLNLGDFILMSVAEENNGGKEKPSILSDALEAIIGAIHLEAGFEFAKTIALRLIEKNFPQIDAKILIKDYKTKLQEITQGKIGQTPQYETVRAFGPDHLKQFEIALMLDGKELARAIAGSKKEAQQMAAKIALEKLGAL
5. MSFFLTTPAAIDLGVNIDHVATLRNARGTAYPDPVRAALAAEDAGADAITLHLREDRRHIVDADVRTLRPRVKTRMNLECAVTPEMLDIACEIRPHDACLVPEKRSELTTEGGLDVVGHFDAVRAACKQLADAGVRVSLFIDPDEAQIRAAHETGAPVIELHTGRYADAHDAAEQQREFERIATGVDAGIALGLKVNAGHGLHYTNVQAIAALPGIAELNIGHAIVAHAVFVGWDNAVREMKAIMVAARVAALHGGR
6. MKPILALLSLLALPVMAAEPTLYGRYENIKVLEIGQTFKAKMDTGALTASLSAKDIELFQRDGDDWVRFRLATKGADDKVYEHKVSRISKIKGRAEGDDEDDEGINPAKRPVVDLELCLGNKKRTVEVNLVDRSHFNFPLLIGAKALREFGAAINPARRYTADEPDC

["failed", "failed", "failed", "not failed", "not failed", "not failed"]
